B1: library; numbered along this chain (parent)
chain: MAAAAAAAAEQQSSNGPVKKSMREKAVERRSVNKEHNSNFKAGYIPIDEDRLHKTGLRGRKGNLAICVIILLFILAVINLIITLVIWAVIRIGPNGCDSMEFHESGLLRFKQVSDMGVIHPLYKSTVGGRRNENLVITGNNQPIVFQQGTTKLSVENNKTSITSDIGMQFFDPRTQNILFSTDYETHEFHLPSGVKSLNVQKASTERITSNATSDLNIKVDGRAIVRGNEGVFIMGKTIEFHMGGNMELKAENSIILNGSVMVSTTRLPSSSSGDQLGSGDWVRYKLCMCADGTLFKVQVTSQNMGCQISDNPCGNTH

- Variants of: B1
- Experiment summary: SGCB cell-surface expression functional score (HA stain, bin4 vs bin1, normalised to synonymous) (log10 ratio); higher = more cell-surface SGCB (functional)
Observed property: SGCB cell-surface expression functional score (log10)
Please give only the number in your answer, with no unit.

Could you tell me which SGCB cell-surface expression functional score (log10) is on file for A6D ? 0.24

Next variant: S271G 0.33

Next variant: R109Q -0.31

Next variant: I162S -1.09

Next variant: S181A 0.2

Next variant: R223C 0.4
